target: human PDE-5A1 (Homo sapiens); assay: Human PDE-5A1 inhibition assay (fluorescence polarization, FAM-cGMP); type: biochemical; settings: read-out: IC50 (μM) PDE5A1

compound_structure_string: CCCc1nn(C)c2c(=O)[nH]c(-c3cc(S(=O)(=O)N4CC(CCCOC(=O)CCCO[N+](=O)[O-])C4)ccc3OCC)nc12
IC50: < 0.01 µM
--
compound_structure_string: CCCc1nc(C)c2c(=O)[nH]c(-c3cc(S(=O)(=O)N4CC(NCCO)C4)ccc3OCC)nn12
IC50: < 0.01 µM
--
compound_structure_string: CCCc1nn(C)c2c(=O)[nH]c(-c3cc(S(=O)(=O)N4CC(CCCOC(=O)CCCCCO[N+](=O)[O-])C4)ccc3OCC)nc12
IC50: < 0.01 µM
